biological target: hKv1.5 (Homo sapiens, UniProt P22460); test: hKv1.5 % inhibition; format: cell-based; settings: read-out: hKv1.5 % inh. 300 nM
Sequence (P22460 whole entry): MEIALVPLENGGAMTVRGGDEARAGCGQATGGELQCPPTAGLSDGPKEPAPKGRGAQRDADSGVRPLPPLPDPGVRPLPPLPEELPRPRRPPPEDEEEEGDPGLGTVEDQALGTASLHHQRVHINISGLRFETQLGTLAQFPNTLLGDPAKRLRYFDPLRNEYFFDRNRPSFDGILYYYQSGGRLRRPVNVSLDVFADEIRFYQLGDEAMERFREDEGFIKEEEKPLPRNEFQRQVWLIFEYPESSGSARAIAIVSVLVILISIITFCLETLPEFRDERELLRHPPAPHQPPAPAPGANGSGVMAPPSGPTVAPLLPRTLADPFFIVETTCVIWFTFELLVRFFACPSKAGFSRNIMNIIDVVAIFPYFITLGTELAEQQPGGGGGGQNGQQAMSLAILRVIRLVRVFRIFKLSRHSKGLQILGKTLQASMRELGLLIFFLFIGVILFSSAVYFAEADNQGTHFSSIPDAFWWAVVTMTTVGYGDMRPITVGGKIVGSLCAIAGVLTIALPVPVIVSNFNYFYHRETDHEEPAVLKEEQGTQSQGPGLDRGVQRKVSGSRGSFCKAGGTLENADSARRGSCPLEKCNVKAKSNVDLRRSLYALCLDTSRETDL
Listed next: entries and their corresponding inhibition at 0.3 µM.
property: inhibition at 0.3 µM

> print(dat)
                                    molecule  value.observed
 1  COCC(=O)N1CCc2cc(N(Cc3ccc(Cl)cc3)S(=O)(=O)c3ccn(C)n3)ccc21 [Example 13]           66.6%
 2  Cn1cnc(S(=O)(=O)N(Cc2ccc(Cl)cc2)c2ccc3c(c2)CCN(C(=O)CO)C3)c1 [Example 19]           16.2%
 3  Cn1cnc(S(=O)(=O)N(Cc2ccc(Cl)cc2)c2ccc3c(c2)NCC3)c1 [Example 6]           37.1%
 4  Cn1cnc(S(=O)(=O)N(Cc2ccc(Cl)cc2)c2ccc3c(c2)CCN(C(=O)CC#N)C3)c1 [Example 20]           13.4%
 5  COCC(=O)N1CCc2cc(N(Cc3ccc(Cl)cc3)S(=O)(=O)c3cn(C)cn3)ccc2C1 [Example 14]           32.1%
 6  COCCC(=O)N1CCc2cc(N(Cc3ccc(Cl)cc3)S(=O)(=O)c3cn(C)cn3)ccc2C1 [Example 16]           32.2%
 7  COCCC(=O)N1CCc2ccc(N(Cc3ccc(Cl)cc3)S(=O)(=O)c3cn(C)cn3)cc21 [Example 11]           20.9%
 8  CC(=O)N1CCc2cc(N(Cc3ccccc3)S(=O)(=O)c3ccn(C)n3)ccc2C1 [Example 10]           37.5%
 9  COCC(=O)N1CCc2ccc(N(Cc3ccc(Cl)cc3)S(=O)(=O)c3ccn(C)n3)cc21 [Example 1]           92.1%
10  CC(=O)N1CCc2ccc(N(Cc3ccc(Cl)cc3)S(=O)(=O)c3ccn(C)n3)cc21 [Example 3]           89.5%

---

Listed next: entries and their corresponding inhibition at 1 µM.
molecular target: UniProt:P22001; experiment: hKv1.3 % inhibition; assay type: cell-based; settings: read-out: hKv1.3 % inh. 1 uM
property: inhibition at 1 µM (%)

> print(dat)
                                   molecule  target.of.assay            property  value.observed
1  COCCC(=O)N1CCc2cc(N(Cc3ccc(Cl)cc3)S(=O)(=O)c3cn(C)cn3)ccc2C1 [Example 16]   UniProt:P22001  inhibition at 1 µM            57.5
2  CC(=O)N1CCc2cc(N(Cc3ccccc3)S(=O)(=O)c3ccn(C)n3)ccc2C1 [Example 10]   UniProt:P22001  inhibition at 1 µM            67.2
3  COCCC(=O)N1CCc2ccc(N(Cc3ccc(Cl)cc3)S(=O)(=O)c3cn(C)cn3)cc21 [Example 11]   UniProt:P22001  inhibition at 1 µM            65.6
4  Cn1cnc(S(=O)(=O)N(Cc2ccc(Cl)cc2)c2ccc3c(c2)CCN(C(=O)CC#N)C3)c1 [Example 20]   UniProt:P22001  inhibition at 1 µM            48.5
5  Cn1ccc(S(=O)(=O)N(Cc2ccc(Cl)cc2)c2ccc3c(c2)CCN3C(=O)CC#N)n1 [Example 7]   UniProt:P22001  inhibition at 1 µM            77.2
6  COCCC(=O)N1CCc2cc(N(Cc3ccc(Cl)cc3)S(=O)(=O)c3ccn(C)n3)ccc21 [Example 5]   UniProt:P22001  inhibition at 1 µM            90.7

---

Listed next: entries and their corresponding inhibition at 1 µM.
target: hKv1.3 (Homo sapiens, UniProt P22001); assay: hKv1.3 % inhibition; type: cell-based; conditions: read-out: hKv1.3 % inh. 1 uM
Sequence (P22001 whole entry): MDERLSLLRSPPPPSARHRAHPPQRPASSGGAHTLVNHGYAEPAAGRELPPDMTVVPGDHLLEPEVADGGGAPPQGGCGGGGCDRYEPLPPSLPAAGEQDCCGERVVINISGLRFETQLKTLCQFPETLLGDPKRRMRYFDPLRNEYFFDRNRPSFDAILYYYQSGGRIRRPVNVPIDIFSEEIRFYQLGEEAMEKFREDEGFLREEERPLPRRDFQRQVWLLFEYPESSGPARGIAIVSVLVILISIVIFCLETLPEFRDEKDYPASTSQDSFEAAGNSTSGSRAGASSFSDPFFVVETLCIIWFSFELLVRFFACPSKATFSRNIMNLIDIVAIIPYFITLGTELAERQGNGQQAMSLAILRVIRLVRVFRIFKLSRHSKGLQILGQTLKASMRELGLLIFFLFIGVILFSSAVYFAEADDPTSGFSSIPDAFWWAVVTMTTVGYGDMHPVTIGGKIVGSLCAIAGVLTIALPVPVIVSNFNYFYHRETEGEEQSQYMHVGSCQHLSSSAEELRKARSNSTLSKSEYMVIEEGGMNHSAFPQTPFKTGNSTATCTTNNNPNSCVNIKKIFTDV
property: inhibition at 1 µM (%)

> print(dat)
                                   compound            property  value.observed
1  Cn1cnc(S(=O)(=O)N(Cc2ccc(Cl)cc2)c2ccc3c(c2)CCN(C(=O)CO)C3)c1 [Example 19]  inhibition at 1 µM            49.5
2  Cn1cnc(S(=O)(=O)N(Cc2ccc(Cl)cc2)c2ccc3c(c2)CCN3)c1 [Example 15]  inhibition at 1 µM            61.1
3  CC(=O)N1CCc2ccc(N(Cc3ccc(Cl)cc3)S(=O)(=O)c3ccn(C)n3)cc21 [Example 3]  inhibition at 1 µM              98
4  COCC(=O)N1CCc2cc(N(Cc3ccc(Cl)cc3)S(=O)(=O)c3ccn(C)n3)ccc21 [Example 13]  inhibition at 1 µM            64.2
5  CC(=O)N1CCc2cc(N(Cc3ccc(Cl)cc3)S(=O)(=O)c3ccn(C)n3)ccc21 [Example 4]  inhibition at 1 µM            91.3
6  COCC(=O)N1CCc2cc(N(Cc3ccc(Cl)cc3)S(=O)(=O)c3cn(C)cn3)ccc2C1 [Example 14]  inhibition at 1 µM            62.7
7  Cn1cnc(S(=O)(=O)N(Cc2ccc(Cl)cc2)c2ccc3c(c2)NCC3)c1 [Example 6]  inhibition at 1 µM            85.4
8  COCC(=O)N1CCc2ccc(N(Cc3ccc(Cl)cc3)S(=O)(=O)c3ccn(C)n3)cc21 [Example 1]  inhibition at 1 µM             100
